Listing of entries alongside the reported % cell viability reduction vs. control.
Tested on: medullary thyroid carcinoma primary cultures
Assay Notes: Cell viability of MTC primary cultures (MTT)
Assay type: cell-based, human
Condition Context: MTC primary culture #8 (non responder), 10^−8 M, forty-eight hours
Square brackets hold non-standard residues; d marks the D form. Peptide text beside a SMILES is read from it. Tic = O=C(O)[C@@H]1Cc2ccccc2CN1; Abu = CC[C@H](N)C(=O)O
Quantity Measured: % cell viability reduction vs. control (%)

[[record]]
compound = "CC(C)[C@@H]1NC(=O)[C@H](CCCCN)NC(=O)[C@@H](Cc2c[nH]c3ccccc23)NC(=O)[C@H](Cc2ccc(O)c(I)c2)NC(=O)[C@@H](NC(=O)[C@H](N)Cc2ccccc2)CSSC[C@@H](C(=O)N[C@H](C(N)=O)[C@@H](C)O)NC1=O"
unit_of_measurement = "%"
reported_result = "−20.6"

[[record]]
compound = "CC[C@@H]1NC(=O)[C@H](CCCCN)NC(=O)[C@@H](Cc2c[nH]c3ccccc23)NC(=O)[C@H](Cc2ccc(O)cc2)NC(=O)[C@@H]2Cc3ccccc3CN2C(=O)[C@H](Cc2ccccc2)NC1=O [Cmpd #2, c[Tic-Tyr-D-Trp-Lys-Abu-Phe]] (cyclo([Tic]Y[dW]K[Abu]F))"
unit_of_measurement = "%"
reported_result = "−15.3"

[[record]]
compound = "C[C@@H](O)[C@H](NC(=O)[C@H](Cc1ccccc1)NC(=O)[C@@H](NC(=O)[C@H](CCCCN)NC(=O)[C@@H](Cc1c[nH]c2ccccc12)NC(=O)[C@H](Cc1c[nH]c2ccccc12)NC(=O)[C@H](Cc1ccccc1)NC(=O)[C@H](N)Cc1ccccc1)[C@@H](C)O)C(N)=O"
unit_of_measurement = "%"
reported_result = "−0.3"

[[record]]
compound = "CC(C)[C@@H]1NC(=O)[C@H](CCCCN)NC(=O)[C@@H](Cc2c[nH]c3ccccc23)NC(=O)[C@H](Cc2ccc(O)cc2)NC(=O)[C@@H](NC(=O)[C@H](N)Cc2ccc3ccccc3c2)CSSC[C@@H](C(=O)N[C@H](C(N)=O)[C@@H](C)O)NC1=O [lanreotide, reference compound]"
unit_of_measurement = "%"
reported_result = "−7.9"

